# System Under Test: PPARγ (Homo sapiens)
# Construct: purchased Invitrogen Corporation, Carlsbad, Calif
# Sequence (P37231 238-503 limits assumed): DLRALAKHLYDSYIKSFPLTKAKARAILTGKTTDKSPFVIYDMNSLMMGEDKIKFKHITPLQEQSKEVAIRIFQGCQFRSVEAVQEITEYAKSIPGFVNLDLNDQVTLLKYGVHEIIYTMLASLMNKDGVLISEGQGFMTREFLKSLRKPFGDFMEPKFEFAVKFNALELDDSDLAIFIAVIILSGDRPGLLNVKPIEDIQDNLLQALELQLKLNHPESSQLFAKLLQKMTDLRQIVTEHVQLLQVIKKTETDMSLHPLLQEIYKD
# Test Description: Commercial PPARγ binding assay (Invitrogen, PPAR-LBD/Fluormone PPAR Green complex)
# Condition Parameters: compound at 3 μM; average (SEM) of three experiments in quadruplicate
Please respond with reported Activation of PPARγ for every item in the list.

Exam item: Reported Activation of PPARγ, molecule CCc1ccc(C(=CCO)COc2ccc(CC3SC(=O)NC3=O)cc2)nc1 (stereo not shown) : ____
Marked response: 230 (13)

Exam item: Please look up its Activation of PPARγ: CCc1ccc(C(=O)COc2ccc(CC3SC(=O)NC3=O)cc2)nc1 (stereo not shown)
Marked response: 228 (6)

Working through the 2 molecules below one at a time, give Activation of PPARγ for each.
1. CCc1ccc(C(=CC(=O)OC)COc2ccc(CC3SC(=O)NC3=O)cc2)nc1 (stereo not shown)
2. CCc1ccc([C@@H](O)COc2ccc(CC3SC(=O)NC3=O)cc2)nc1 (stereo partly shown)

Marked response:
1: 185 (17); 2: 236 (13)
